Provenance of the data: paper PMC7156458

Assay: cytotoxicity in Drosophila l(2)mbn cells
Assay type: cell-based
Conditions: Drosophila, l(2)mbn cells (larval blood cell-derived), 1 µM, replicate 2, relative to DMSO 1%, read-out: % viability, viability 2
compounds and their reported viability at 1 µM
Answers without a unit are incomplete; give the number and then its unit.

For orientation, consider the following solved cases.
compound	viability at 1 µM
C=C1CC[C@H]2[C@]3(C)C[C@H](C=C(C)C)O[C@H]3CC[C@]2(C)[C@@H]1Cc1c(OC)oc(CO)c(C)c1=O	131%
C=C1CC[C@H]2[C@]3(C)C[C@@H](C=C(C)C)O[C@H]3CC[C@]2(C)[C@@H]1Cc1c(OC)oc(CO)c(C)c1=O	97%
C=C1CC[C@H]2[C@]3(C)C[C@@H](C=C(C)C)O[C@H]3CC[C@]2(C)[C@@H]1Cc1c(O)c(C)c(C)oc1=O	8.5%

## Input Quick one: viability at 1 µM of C=C1CC[C@H]2[C@]3(C)C[C@H](C=C(C)C)O[C@H]3CC[C@]2(C)[C@@H]1Cc1c(OC)oc(C)c(C)c1=O ?
## Output 122%

## Input # lookup: viability at 1 µM of C=C1CC[C@@H]2[C@](C)(CC[C@H]3O[C@H](C=C(C)C)C[C@@]23C)[C@@H]1Cc1c(O)c(C)c(C)oc1=O
## Output 41.9%

## Input Field request: viability at 1 µM | item: C=C1CCC2C(C)(CCC=C(C)C)C(O)CCC2(C)C1Cc1c(O)c(C)c(C)oc1=O (stereo not shown)
## Output 84.3%

## Input // viability at 1 µM lookup, key: C=C1CCC2C(C)(CC(=O)C=C(C)C)C(O)CCC2(C)C1Cc1c(OC)oc(C)c(C)c1=O (stereo not shown)
## Output 140%

## Input Query: viability at 1 µM; subject: C=C1CCC2C(C)(CC(=O)C=C(C)C)C(O)CCC2(C)C1Cc1c(O)c(C)c(C)oc1=O (stereo not shown)
## Output 132%
